Biological target: MLXBIR3SG (Homo sapiens, UniProt Q96CA5, S150G)
Sequence (Q96CA5 with tags, fused parts or gaps S150G): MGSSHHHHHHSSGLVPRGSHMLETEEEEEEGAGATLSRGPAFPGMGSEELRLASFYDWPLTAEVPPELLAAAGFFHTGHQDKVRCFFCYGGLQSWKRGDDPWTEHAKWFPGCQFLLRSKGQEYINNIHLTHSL
Assay: Fluorescence polarization peptide binding assay, MLXBIR3SG
Details: 0.06 μM MLXBIR3SG, 5 nM AVP-diPhe-FAM probe; Ki determined from IC50
Observation Type: pKi
# pKi = -log10(concentration in molar units)

> print(dat)
                                     smiles  recorded.number
1  CN[C@@H](C)C(=O)N[C@H](C(=O)N1CCC[C@H]1c1cc2nc(C)nc(-c3ccc(F)cc3)c2[nH]1)C1CCOCC1             7.61
2  CN[C@@H](C)C(=O)N[C@H](C(=O)N1CCC[C@H]1c1cc2ccnc(-c3ccccc3)c2[nH]1)c1ccccc1             7.48
3  CN[C@@H](C)C(=O)N[C@H](C(=O)N1CCC[C@H]1c1cc2ccnc(-c3ccccc3)c2[nH]1)C1CCOCC1             7.44
4  CN[C@@H](C)C(=O)N[C@H](C(=O)N1CCC[C@H]1c1cc2ccnc(-c3ccccc3Cl)c2[nH]1)C1CCOCC1             6.83
5  CN[C@@H](C)C(=O)N[C@H](C(=O)N1CCC[C@H]1c1cc2nc(C)nc(-c3ccc(F)cc3)c2[nH]1)C1CCCCC1             7.85
6  CN[C@@H](C)C(=O)N[C@H](C(=O)N1CCC[C@H]1c1cc2ccnc(-c3ccccc3)c2[nH]1)C1CCCCC1             7.68

# input for lookup
Requested read-out: pKi. Entry: `CN[C@@H](C)C(=O)N[C@H](C(=O)N1CCC[C@H]1c1cc2ncnc(-c3ccccc3)c2[nH]1)C1CCCCC1`
7.53

----------
Target: cIAP1XBIR3 (Homo sapiens, UniProt Q13490, C308S/R332G/S292A)
Sequence (Q13490 with tags, fused parts or gaps S292A/C308S/R332G): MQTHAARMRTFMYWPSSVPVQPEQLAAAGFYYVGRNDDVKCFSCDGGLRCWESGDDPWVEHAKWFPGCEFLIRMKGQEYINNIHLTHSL
Assay: Fluorescence polarization peptide binding assay, cIAP1XBIR3
Details: 0.2 μM cIAP1XBIR3, 5 nM AVP-diPhe-FAM probe
Description: Similar cIAP1-BIR3/XIAP-BIR3 and cIAP2-BIR3/XIAP-BIR3 chimeric proteins, cIAP1XBIR3 and cIAP2XBIR3, respectively, were engineered, expressed, and purified in a similar fashion to MLXBIR3SG. As with MLXBIR3SG, the amino acid sequences of these BIR domains retain the native cIAP peptide-binding sites. […]
Observation Type: IC50 (nM)
Please respond with the number in nM and leave the unit unwritten.

> print(dat)
                                   compound  units.of.measure  recorded.number
1  CN[C@@H](C)C(=O)N[C@H](C(=O)N1CCC[C@H]1c1cc2ccnc(-c3ccccc3)c2[nH]1)C1CCOCC1 [compound 1]                nM              461

Consider the additional compound presented here.
Suppose we examine the compound CN[C@@H](C)C(=O)N[C@H](C(=O)N1CCC[C@H]1c1cc2ccnc(-c3ccccc3Cl)c2[nH]1)C1CCOCC1 [compound 11] ; what IC50 value has been reported?
194

----------
Each entry below carries its reported IC50.
Target: MLXBIR3SG (Homo sapiens, UniProt Q96CA5, S150G)
Test: Fluorescence polarization peptide binding assay, MLXBIR3SG
Conditions: 0.06 μM MLXBIR3SG, 5 nM AVP-diPhe-FAM probe
Could you give me the number in nM? Just the number is fine.

> print(dat)
                                     smiles  recorded.number
1  CN[C@@H](C)C(=O)N[C@H](C(=O)N1CCC[C@H]1c1cc2ccnc(-c3ccccc3)c2[nH]1)C1CCCCC1               91

If you can, please state the reported IC50 value of `CN[C@@H](C)C(=O)N[C@H](C(=O)N1CCC[C@H]1c1cc2nc(C)nc(-c3ccccc3)c2[nH]1)C1CCCCC1` .
139

What measured IC50 goes with `CN[C@@H](C)C(=O)N[C@H](C(=O)N1CCC[C@H]1c1cc2ccnc(-c3ccc(F)cc3)c2[nH]1)C1CCCCC1` ?
99.3

Quick check: IC50 of `CN[C@@H](C)C(=O)N[C@H](C(=O)N1CCC[C@H]1c1cc2ccnc(-c3ccccc3)c2[nH]1)c1ccccc1` ?
144

----------
Target: XIAP-BIR3 (Homo sapiens, UniProt P98170)
Construct: serial dilutions of MLXBIR3SG, XIAP-BIR3, cIAP1XBIR3, or cIAP2XBIR3
Sequence (P98170 241-356 limits assumed): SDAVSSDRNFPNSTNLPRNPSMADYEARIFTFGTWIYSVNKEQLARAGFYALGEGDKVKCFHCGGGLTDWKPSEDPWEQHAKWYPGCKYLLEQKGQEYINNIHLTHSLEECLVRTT
Experiment: Fluorescence polarization peptide binding assay, XIAP-BIR3
Conditions: 0.5 μM XIAP-BIR3, 5 nM AVP-diPhe-FAM probe; read-out: XIAPBIR3 IC50
Recorded IC50 values for a group of molecules are listed next.
Quick note: give the figure in nM, leave out the unit.

Examples with answers:
> print(dat)
                                     smiles  units.of.measure  recorded.number
1  CN[C@@H](C)C(=O)N[C@H](C(=O)N1CCC[C@H]1c1cc2nc(C)nc(-c3ccccc3)c2[nH]1)C1CCOCC1                nM             1130
2  CN[C@@H](C)C(=O)N[C@H](C(=O)N1CCC[C@H]1c1cc2ccnc(-c3ccc(F)cc3)c2[nH]1)C1CCCCC1                nM              574
3  CN[C@@H](C)C(=O)N[C@H](C(=O)N1CCC[C@H]1c1cc2nc(C)nc(-c3ccc(F)cc3)c2[nH]1)C1CCOCC1                nM              500
4  CN[C@@H](C)C(=O)N[C@H](C(=O)N1CCC[C@H]1c1cc2nc(C)nc(-c3ccc(F)cc3)c2[nH]1)C1CCCCC1                nM              364
5  CN[C@@H](C)C(=O)N[C@H](C(=O)N1CCC[C@H]1c1cc2nc(C)nc(-c3ccccc3)c2[nH]1)C1CCCCC1                nM              514

Let us move to another entry and its IC50.
So what does the record say about IC50 for `CN[C@@H](C)C(=O)N[C@H](C(=O)N1CCC[C@H]1c1cc2ccnc(-c3ccccc3)c2[nH]1)C1CCOCC1` ?
508

----------
Target: MLXBIR3SG (Homo sapiens, UniProt Q96CA5, S150G)
Test: Fluorescence polarization peptide binding assay, MLXBIR3SG
Conditions: 0.06 μM MLXBIR3SG, 5 nM AVP-diPhe-FAM probe
In plain terms, low IC50, meaning strictly below 200 nM, gives Yes, and everything else gives No.

> print(dat)
                                     smiles  class
1  CN[C@@H](C)C(=O)N[C@H](C(=O)N1CCC[C@H]1c1cc2ncnc(-c3ccccc3)c2[nH]1)C1CCCCC1    Yes
2  CN[C@@H](C)C(=O)N[C@H](C(=O)N1CCC[C@H]1c1cc2nc(C)nc(-c3ccc(F)cc3)c2[nH]1)C1CCCCC1    Yes
3  CN[C@@H](C)C(=O)N[C@H](C(=O)N1CCC[C@H]1c1cc2ccnc(-c3ccccc3Cl)c2[nH]1)C1CCOCC1     No

IC50 strictly < 200 nM for this molecule? `CN[C@@H](C)C(=O)N[C@H](C(=O)N1CCC[C@H]1c1cc2nc(C)nc(-c3ccc(F)cc3)c2[nH]1)C1CCOCC1`
Yes

Item `CN[C@@H](C)C(=O)N[C@H](C(=O)N1CCC[C@H]1c1cc2ccnc(-c3ccc(F)cc3)c2[nH]1)C1CCOCC1` : IC50 beneath 200 nM, strictly?
Yes

Consider `CN[C@@H](C)C(=O)N[C@H](C(=O)N1CCC[C@H]1c1cc2ncnc(-c3ccccc3)c2[nH]1)C1CCOCC1` . Does its IC50 lie strictly below 200 nM?
Yes

Find out if reported IC50 for `CN[C@@H](C)C(=O)N[C@H](C(=O)N1CCC[C@H]1c1cc2ccnc(-c3ccccc3)c2[nH]1)C1CCOCC1` is less than 200 nM
Yes

Regarding `CN[C@@H](C)C(=O)N[C@H](C(=O)N1CCC[C@H]1c1cc2nc(C)nc(-c3ccccc3)c2[nH]1)C1CCOCC1` , kindly confirm whether its IC50 is beneath 200 nM.
No
